System: Serratia marcescens
Assay: Activity of Serratia marcescens AAC(6')-2d assessed as compound acetylation activity by Ellman's method
Calls of active or inactive are those of the source. The calls are words filed in the database; no cut-off is given here.
Quantity: Activity

Compound	Endpoint value
CCCCCCCCCCCCCCS(=O)(=O)C[C@@H]1O[C@@H](O[C@@H]2[C@@H](O)[C@H](O[C@@H]3O[C@@H](CN)[C@H](O)[C@@H](O)[C@@H]3N)[C@@H](N)C[C@H]2N)[C@@H](O)[C@H](N)[C@H]1O (stereo in doubt)	inactive
CCCCCCCCCCCCSC[C@@H]1O[C@@H](O[C@@H]2[C@@H](O)[C@H](O[C@@H]3O[C@@H](CN)[C@H](O)[C@@H](O)[C@@H]3N)[C@@H](N)C[C@H]2N)[C@@H](O)[C@H](N)[C@H]1O (stereo in doubt)	inactive
CCCCCCCCCCSC[C@@H]1O[C@@H](O[C@@H]2[C@@H](O)[C@H](O[C@@H]3O[C@@H](CN)[C@H](O)[C@@H](O)[C@@H]3N)[C@@H](N)C[C@H]2N)[C@@H](O)[C@H](N)[C@H]1O (stereo in doubt)	inactive
CCCCCCCCCCCCS(=O)(=O)C[C@@H]1O[C@@H](O[C@@H]2[C@@H](O)[C@H](O[C@@H]3O[C@@H](CN)[C@H](O)[C@@H](O)[C@@H]3N)[C@@H](N)C[C@H]2N)[C@@H](O)[C@H](N)[C@H]1O (stereo in doubt)	inactive

---

System: Bacillus subtilis subsp. subtilis str. 168
Experiment: Activity of Bacillus subtilis 168 APH(2'')-1a assessed as compound phosphorylation activity by Ellman's method
Activity calls are given as the source filed them. The rule behind the calls is not given here.
Quantity: Activity

Compound	Endpoint value
CCCCCCCCCCCCCCS(=O)(=O)C[C@@H]1O[C@@H](O[C@@H]2[C@@H](O)[C@H](O[C@@H]3O[C@@H](CN)[C@H](O)[C@@H](O)[C@@H]3N)[C@@H](N)C[C@H]2N)[C@@H](O)[C@H](N)[C@H]1O (stereo in doubt)	inactive
CCCCCCCCSC[C@@H]1O[C@@H](O[C@@H]2[C@@H](O)[C@H](O[C@@H]3O[C@@H](CN)[C@H](O)[C@@H](O)[C@@H]3N)[C@@H](N)C[C@H]2N)[C@@H](O)[C@H](N)[C@H]1O (stereo in doubt)	inactive
CCCCCCCCCCCCS(=O)(=O)C[C@@H]1O[C@@H](O[C@@H]2[C@@H](O)[C@H](O[C@@H]3O[C@@H](CN)[C@H](O)[C@@H](O)[C@@H]3N)[C@@H](N)C[C@H]2N)[C@@H](O)[C@H](N)[C@H]1O (stereo in doubt)	inactive

---

Tested on: Aspergillus nidulans
Test: Antifungal activity against Aspergillus nidulans ATCC 38163 after 48 hrs by microbroth dilution method
Assay type: functional
Settings: ATCC 38163, 48 h
Quantity: MIC (µg/mL)
State just the number; it will be interpreted in µg/mL.

Example cases with answers are listed next.
Compound	Quantity	U	Endpoint value
CCCCCCCCCCCCCCS(=O)(=O)C[C@@H]1O[C@@H](O[C@@H]2[C@@H](O)[C@H](O[C@@H]3O[C@@H](CN)[C@H](O)[C@@H](O)[C@@H]3N)[C@@H](N)C[C@H]2N)[C@@H](O)[C@H](N)[C@H]1O (stereo in doubt)	MIC	µg/mL	1.95
CCCCCCCCCCSC[C@H]1O[C@H](O[C@@H]2[C@@H](O)[C@H](O[C@H]3O[C@H](CN)[C@@H](O)C[C@H]3N)[C@@H](N)C[C@H]2N)[C@H](O)[C@@H](N)[C@@H]1O	MIC	µg/mL	62.5

Measured on Aspergillus nidulans, CCCCCCCCCCCCS(=O)(=O)C[C@@H]1O[C@@H](O[C@@H]2[C@@H](O)[C@H](O[C@@H]3O[C@@H](CN)[C@H](O)[C@@H](O)[C@@H]3N)[C@@H](N)C[C@H]2N)[C@@H](O)[C@H](N)[C@H]1O (stereo in doubt) has a documented MIC of 3.9

---

Tested on: Staphylococcus aureus
Test: Antibacterial activity against Staphylococcus aureus ATCC 29213 by microdilution method
Assay type: functional
Quantity: MIC

Compound	MIC
NC[C@H]1O[C@H](O[C@H]2[C@H](O)[C@@H](O[C@H]3O[C@H](CO)[C@@H](O)[C@H](N)[C@H]3O)[C@H](N)C[C@@H]2N)[C@H](N)[C@@H](O)[C@@H]1O	≤ 0.25 µg/mL

Measured on Staphylococcus aureus, CCCCCCCCCCSC[C@@H]1O[C@@H](O[C@@H]2[C@@H](O)[C@H](O[C@@H]3O[C@@H](CN)[C@H](O)[C@@H](O)[C@@H]3N)[C@@H](N)C[C@H]2N)[C@@H](O)[C@H](N)[C@H]1O (stereo in doubt) has a documented MIC of 16 µg/mL

Measured on Staphylococcus aureus, NC[C@H]1O[C@H](O[C@H]2[C@H](O)[C@@H](O[C@H]3O[C@H](CO)[C@@H](O)[C@H](N)[C@H]3O)[C@H](N)C[C@@H]2N)[C@H](O)[C@@H](O)[C@@H]1O has a documented MIC of > 128 µg/mL

---

Test system: Escherichia coli
Assay: Antibacterial activity against Escherichia coli MC1061 by microdilution method
Type: functional
Form field: MIC (one value per entry).
State just the number; it will be interpreted in µg/mL.

Molecule	Test target	U	MIC
NC[C@H]1O[C@H](O[C@H]2[C@H](O)[C@@H](O[C@H]3O[C@H](CO)[C@@H](O)[C@H](N)[C@H]3O)[C@H](N)C[C@@H]2N)[C@H](O)[C@@H](O)[C@@H]1O [KANAMYCIN]	Escherichia coli	µg/mL	8

Proceeding to the next molecule to report its MIC.
GET /value?item= NC[C@H]1O[C@H](O[C@H]2[C@H](O)[C@@H](O[C@H]3O[C@H](CO)[C@@H](O)[C@H](N)[C@H]3O)[C@H](N)C[C@@H]2N)[C@H](N)[C@@H](O)[C@@H]1O [BEKANAMYCIN] &field=MIC returns 2

---

Tested on: Candida albicans
Experiment: Antifungal activity against azole-resistant Candida albicans ATCC 90819 after 48 hrs by microbroth dilution method
Format: functional
Details: ATCC 90819, 48 h
Quantity: MIC (µg/mL)
State just the number; it will be interpreted in µg/mL.

Compound	MIC, µg/mL
CCCCCCCCCCCCCCSC[C@@H]1O[C@@H](O[C@@H]2[C@@H](O)[C@H](O[C@@H]3O[C@@H](CN)[C@H](O)[C@@H](O)[C@@H]3N)[C@@H](N)C[C@H]2N)[C@@H](O)[C@H](N)[C@H]1O (stereo in doubt)	15.6

Measured on Candida albicans, CCCCCCCCCCCCCCCCSC[C@@H]1O[C@@H](O[C@@H]2[C@@H](O)[C@H](O[C@@H]3O[C@@H](CN)[C@H](O)[C@@H](O)[C@@H]3N)[C@@H](N)C[C@H]2N)[C@@H](O)[C@H](N)[C@H]1O (stereo in doubt) has a documented MIC of 3.9

---

Form field: MIC (one value per entry).
Tested on: Candida albicans
Experiment: Antifungal activity against azole-susceptible Candida albicans ATCC MYA-2876 after 48 hrs by microbroth dilution method
Assay type: functional
Details: ATCC MYA-2876, 48 h
State just the number; it will be interpreted in µg/mL.

Example cases with answers are listed next.
Compound	Quantity	U	Endpoint value
CCCCCCCCCCCCSC[C@@H]1O[C@@H](O[C@@H]2[C@@H](O)[C@H](O[C@@H]3O[C@@H](CN)[C@H](O)[C@@H](O)[C@@H]3N)[C@@H](N)C[C@H]2N)[C@@H](O)[C@H](N)[C@H]1O (stereo in doubt)	MIC	µg/mL	31.2
CCCCCCCCCCSC[C@@H]1O[C@@H](O[C@@H]2[C@@H](O)[C@H](O[C@@H]3O[C@@H](CN)[C@H](O)[C@@H](O)[C@@H]3N)[C@@H](N)C[C@H]2N)[C@@H](O)[C@H](N)[C@H]1O (stereo in doubt)	MIC	µg/mL	125
CCCCCCCCCCCCCCCCSC[C@@H]1O[C@@H](O[C@@H]2[C@@H](O)[C@H](O[C@@H]3O[C@@H](CN)[C@H](O)[C@@H](O)[C@@H]3N)[C@@H](N)C[C@H]2N)[C@@H](O)[C@H](N)[C@H]1O (stereo in doubt)	MIC	µg/mL	3.9
CCCCCCCCCCCCS(=O)(=O)C[C@@H]1O[C@@H](O[C@@H]2[C@@H](O)[C@H](O[C@@H]3O[C@@H](CN)[C@H](O)[C@@H](O)[C@@H]3N)[C@@H](N)C[C@H]2N)[C@@H](O)[C@H](N)[C@H]1O (stereo in doubt)	MIC	µg/mL	31.2
CCCCCCCCCCCCCCSC[C@@H]1O[C@@H](O[C@@H]2[C@@H](O)[C@H](O[C@@H]3O[C@@H](CN)[C@H](O)[C@@H](O)[C@@H]3N)[C@@H](N)C[C@H]2N)[C@@H](O)[C@H](N)[C@H]1O (stereo in doubt)	MIC	µg/mL	7.8

Proceeding to the next compound to report its MIC.
GET /value?item= CCCCCCCCCCCCCCS(=O)(=O)C[C@@H]1O[C@@H](O[C@@H]2[C@@H](O)[C@H](O[C@@H]3O[C@@H](CN)[C@H](O)[C@@H](O)[C@@H]3N)[C@@H](N)C[C@H]2N)[C@@H](O)[C@H](N)[C@H]1O (stereo in doubt) &field=MIC returns 3.9
